The reader will find reported T/C values listed item by item below.
# System: L1210 leukemia ip in BDF1 mice, survival T/C
# PROTOCOL_SUMMARY: NCI In Vivo Anticancer Drug Screen. Data for tumor model L1210 Leukemia (intraperitoneal) in B6D2F1 (BDF1) mice
# COND: endpoint: mean survival time; dose: 50.0 mg/kg/injection; schedule: Q01DX009 (ip); vehicle: saline with Tween-80; higher = longer survival
Inconclusive results and toxic doses are left out.

Please review the following examples before continuing.
| COMPOUND | T/C |
| --- | --- |
| CC(=O)c1cccc(NC(=S)NC(=O)/C=C/c2ccccc2)c1 | 92 % of control |
| CC1(C)C2=CCCC(O)C2(C)CCC1O (centres undefined) | 96 % of control |
| COc1ccc(/C=N/NC(=O)CNC(=O)Nc2cccc(Cl)c2)cc1 | 87 % of control |
| COc1ccc(C)cc1NC(=O)NNC(=O)c1ccc(Cl)cc1 | 98 % of control |
| O=C(C[n+]1ccccc1)N/N=C/c1ccccc1O | 96 % of control |

Report T/C for `COc1cc2c(cc1[N+](=O)[O-])C(=O)CCCC2` tested on L1210 leukemia ip in BDF1 mice, survival T/C.
88 % of control

Report T/C for `N=c1c2ncn(C3CCCC3)c2ncn1O` tested on L1210 leukemia ip in BDF1 mice, survival T/C.
114 % of control

Report T/C for `CC(=O)c1cc(C)c(C)s1` tested on L1210 leukemia ip in BDF1 mice, survival T/C.
100 % of control

Report T/C for `NC(=O)C1(c2ccccc2)CCN(Cc2ccccc2)CC1` tested on L1210 leukemia ip in BDF1 mice, survival T/C.
98 % of control

Report T/C for `Nc1[nH]c(=O)ncc1-c1ccccc1Cl` tested on L1210 leukemia ip in BDF1 mice, survival T/C.
91 % of control

Report T/C for `Cc1cc2nc(Cc3ccccc3)[nH]c2cc1C` tested on L1210 leukemia ip in BDF1 mice, survival T/C.
90 % of control

Report T/C for `Cc1cccc(N=Cc2ccccc2O)c1` tested on L1210 leukemia ip in BDF1 mice, survival T/C.
99 % of control

Report T/C for `Cc1cccc([N+](=O)[O-])n1` tested on L1210 leukemia ip in BDF1 mice, survival T/C.
94 % of control

----------
# Tested on: L1210 leukemia ip in BDF1 mice, survival T/C
# PROTOCOL_SUMMARY: NCI In Vivo Anticancer Drug Screen. Data for tumor model L1210 Leukemia (intraperitoneal) in B6D2F1 (BDF1) mice
# COND: endpoint: mean survival time; dose: 400.0 mg/kg/injection; schedule: Q01DX001 (ip); vehicle: saline; higher = longer survival
Toxic doses and inconclusive results are not listed.
MEASUREMENT_KIND: T/C

Please review the following examples before continuing.
| COMPOUND | ASSAY_VALUE |
| --- | --- |
| CC(=O)OCC(=O)c1cc(OC(C)=O)c(OC(C)=O)c(OC(C)=O)c1 | 94 % of control |
| O=C(OCc1ccccc1)c1cc(I)c(OCc2ccccc2)c(I)c1 | 98 % of control |
| CC1C(C)(C)C12C=CC=C2 (stereo not drawn) | 96 % of control |
| CC(=O)Oc1ccc(CCN=C(c2ccccc2)c2ccccc2)cc1OC(C)=O | 100 % of control |
| C(=N\N=c1\[nH][nH]/c(=N/N=C/c2ccc(-c3ccccc3)cc2)c2ccccc12)/c1ccc(-c2ccccc2)cc1 | 98 % of control |

Record request: T/C value, item `O=C(O)c1ccccc1C(=O)c1ccc(F)cc1`
93 % of control

Record request: T/C value, item Nc1ncnc2c1nc1n2C2OC(CO)C(O)C2O1 (stereo not drawn)
111 % of control

Record request: T/C value, item `O=C(O)CCC(=O)O`
107 % of control

Record request: T/C value, item `CC(C)=Nc1cccc(B(O)O)c1`
95 % of control

Record request: T/C value, item `O=C(Cc1ccccc1)c1ccc(O)cc1O`
102 % of control

Record request: T/C value, item CC(C)OC(=O)C(C)OC(=O)C1CCCCC1 (stereo not drawn)
93 % of control

Record request: T/C value, item `CC(C)(C)C#N`
95 % of control

Record request: T/C value, item `Brc1ccc(-c2nc3ccccc3c(Br)c2Br)cc1`
90 % of control
